Sourced from patent CN114685656A

Reported values of MFI for individual entries
# subject of test: 人SIRPα受体 on CHO cells (CHO-huSIRPα) (human) (UniProt P78324)
# assay explanation: flow cytometry, hybridoma supernatant on CHO-huSIRPα cells, PE anti-mouse IgG Fc
Dear colleague, please return just the value in MFI, with no unit written.

binder	parameter measured	test value
36G4 (antibody, V domains shown, also called 抗SIRPα抗体36G4) VH: EVQLVESGGGLVQPGGSLKLSCAASGFTFSNYGMSWVRQTPDKRLELVATINSNGGDTSYPDSVRGRFTISRDNAKNTLYLQMSSLKSEDTAMYYCTRGGWSWFAYWGQGTLVTVSA VL: DIVLTQSPTSLAVSLGQRATISCRASESADSYGNSYMNWYQQKPGQPPKLLIYLASNLESGVPARFSGSGSRTDFTLTIDPVEADDAATYYCQQINEDPYTFGGGTKLEIK	MFI	9520

Read the next record carefully.
Return reported MFI; argument: 52B3 (antibody, V domains shown, also called 抗SIRPα抗体52B3) VH: EVQLQQSGAELVRSGASVKMSCKASDYTFTSYNLHWVKQTPGQGLEWIGYIYPGNGNTKYSQKFKGKATLTADTSSSTAYMQISSLTSEDSAVYFCTRNYDYYFYTMGYWGQGTTVTVSS VL: DIVLTQSPKFMSTSVGDRVNITCKASQDVCTAVAWYQQKPGQSPKLLIYSASYRYTGVPDRFTGSGSRTDFTFTISSVQAEDLAVYYCQQHYSTPLTFGAGTKLELK
13600
